# Tested on: TEC
# measurementConditions: concentration: 1 μM, replicates: in singlicate; n = 1;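 note: KINOMEscan kinase panel screen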
experimentalReadout: %Inh (%)
Give just the numeric value; % need not be written.

The following compounds have reported results that may help.
In [3]: df
Out[3]:
                                   compound  recordedmeasurement
0  O=C(Nc1n[nH]c2nc(-c3cccc(O)c3)ccc12)C1CC1 [SB-711805]                    0
1  Cc1ccc(NC(=O)c2cccc(N3CCCCC3)c2)cc1-c1ccc(C(=O)NCC2CC2)cc1 [GSK1917008]                    0
2  Cl.N#CCc1ccc(Nc2nccc(Nc3ccc(Oc4ccccc4)cc3)n2)cc1 [GW639905]                   75
3  Cc1cc(-c2ccnc(Nc3cccc(C#N)c3)n2)cc(C)c1O [GSK1440913]                   19

Exercise: Name the reported %Inh value associated with the compound CN(C)CCNS(=O)(=O)c1ccc(-c2ccnc3[nH]ccc23)cc1 [GSK977620]
Key: 0

Exercise: Try the compound COc1cc(Nc2nccc(N3CCC(NC(=O)Nc4ccc5c(c4)OCO5)C3)n2)cc(OC)c1OC (stereo not drawn) [GSK1379766]
Key: 6

Exercise: Try the compound Cc1ccc(Nc2ccnc(Nc3ccc(C)c(F)c3)n2)cc1O.Cl [GW582868]
Key: 7

* * *

# Tested on: IKK-alpha
# Construct: gene CHUK
# measurementConditions: concentration: 1 μM, replicates: in singlicate; n = 1
Entries annotated with measured %Inh
Give just the numeric value; % need not be written.

>>> df
                                   molecule  recordedmeasurement
0  COc1cccc(NC(=O)NCCNc2ccnc(Nc3ccc(F)cc3)n2)c1 [GSK1379879]                    0
1         CN(C)c1ncnc2nc[nH]c12 [SKF-31736]                   23
2  CC(C)(C)c1ccc(C(=O)Nc2cn3cc(-n4ccnc4)ccc3n2)cc1                    2

Exercise: Name the reported %Inh value associated with the molecule CCNc1nccc(-c2c(-c3ccc(F)cc3)ncn2C2CCN(C)CC2)n1
Key: 0

Exercise: Try the molecule O=C(Nc1n[nH]c2cc(-c3cccs3)ccc12)C1CC1 [SB-731284]
Key: 57

Exercise: Try the molecule CC(C)c1nc(-c2ccc(F)c(NS(=O)(=O)c3c(F)cccc3F)c2)c(-c2ccnc(Nc3ccc(N4CCOCC4)nc3)n2)s1 [GSK1804250]
Key: 0

Exercise: Try the molecule Cl.N#CCc1ccc(Nc2nccc(Nc3ccc(Oc4ccccc4)cc3)n2)cc1 [GW639905]
Key: 39

Exercise: Try the molecule CNc1nccc(-c2ccc3c(N)n[nH]c3c2)n1 [GSK2206003]
Key: 90

Exercise: Try the molecule Cn1cc(-c2cnc(N)c3c(-c4ccc5c(c4)CCN5C(=O)Cc4ccccc4)csc23)cn1 [GSK2593074]
Key: 0

Exercise: Try the molecule O=C(Nc1n[nH]c2nc(-c3ccccc3)ccc12)C1CC1 [SB-708999]
Key: 94

Exercise: Try the molecule NCCC(NC(=O)c1cc(Br)c(-c2ccnc3[nH]ccc23)s1)c1ccccc1.O=C(O)C(F)(F)F.O=C(O)C(F)(F)F (stereo not drawn) [GSK1307810]
Key: 52

Exercise: Try the molecule COc1cc(Nc2nccc(N3CCC(NC(=O)Nc4ccc5c(c4)OCO5)C3)n2)cc(OC)c1OC (stereo not drawn) [GSK1379766]
Key: 27

Exercise: Try the molecule Cc1cccc(Nc2nc(N[C@H]3CCCC[C@H]3N)ncc2C(N)=O)c1.Cl [GSK986310]
Key: 0

Exercise: Try the molecule Cc1cc(-c2ccnc(Nc3cccc(C#N)c3)n2)cc(C)c1O [GSK1440913]
Key: 61

Exercise: Try the molecule Cc1ccccc1CC(=O)N1CCc2cc(-c3cn(C)c4ncnc(N)c34)ccc21 [GSK2603346]
Key: 12

Exercise: Try the molecule Cc1cc(-c2c(-c3ccc(F)cc3)ncn2CCCN2CCOCC2)nc(N)n1 [SB-222517]
Key: 0
